Where do the numbers come from? From patent US20120220540A1.

Molecular target: T1, AKT1 (human, UniProt P31749 1-480)
T1 construct: also called human AKT1; AKT1_HUMAN
T1 sequence (P31749 whole entry): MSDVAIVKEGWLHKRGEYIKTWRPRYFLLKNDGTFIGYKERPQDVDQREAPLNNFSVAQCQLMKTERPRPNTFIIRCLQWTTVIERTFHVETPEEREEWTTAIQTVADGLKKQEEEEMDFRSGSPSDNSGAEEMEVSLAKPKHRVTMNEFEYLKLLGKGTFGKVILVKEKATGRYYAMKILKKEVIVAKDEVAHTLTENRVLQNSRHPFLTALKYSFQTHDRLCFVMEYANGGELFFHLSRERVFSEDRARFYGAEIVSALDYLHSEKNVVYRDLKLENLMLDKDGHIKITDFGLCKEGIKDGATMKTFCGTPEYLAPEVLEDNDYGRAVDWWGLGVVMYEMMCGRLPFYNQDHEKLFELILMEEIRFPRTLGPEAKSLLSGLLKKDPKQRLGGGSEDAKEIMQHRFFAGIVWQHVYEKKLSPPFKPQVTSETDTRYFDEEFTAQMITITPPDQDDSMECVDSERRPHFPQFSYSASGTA
Experiment: method not stated (Table 4)
Ends that are not written are not given here.
Test readout: Kd

Value of measured Kd for the entry m4-Akt26-23 KC (designed binder, also: bond at chain A 21 to a chain's C-terminus, Mutant peptide on a lysine scaffold; Branched molecule, which I split into two chains) chain 1: AHKVVPQRWIRHAYNRYGSGKC chain 2: FRGWAHIFFGPHVIYRGGSG : 5 nM

Value of measured Kd for the entry m2-Akt26-23 KC (designed binder, also: bond at chain A 21 to a chain's C-terminus, Mutant peptide on a lysine scaffold; Branched molecule, which I split into two chains) chain 1: AHKVVYQRQIRFAYNRYGSGKC chain 2: FRGWAHIFFGPHVIYRGGSG : 5 nM

Value of measured Kd for the entry m6-Akt26-23 KC (designed binder, also: bond at chain A 21 to a chain's C-terminus, Mutant peptide on a lysine scaffold; Branched molecule, which I split into two chains) chain 1: AWKVVPQRWIRYAYNRYGSGKC chain 2: FRGWAHIFFGPHVIYRGGSG : ~10 nM

Value of measured Kd for the entry m5-Akt26-23 KC (designed binder, also: bond at chain A 21 to a chain's C-terminus, Mutant peptide on a lysine scaffold; Branched molecule, which I split into two chains) chain 1: AWKVVPQRWIRHAYNRYGSGKC chain 2: FRGWAHIFFGPHVIYRGGSG : 8 nM

Value of measured Kd for the entry m1-Akt26-23 KC (designed binder, also: bond at chain A 21 to a chain's C-terminus, Mutant peptide on a lysine scaffold) chain 1: AHKVVPQRQMRHAYSRYGSGKC chain 2: FRGWAHIFFGPHVIYRGGSG : 15 nM
